Would you mind telling me the reported Emax of each entry?
Target: NMDAR2A (Homo sapiens, UniProt Q12879)
Construct: expressed in transfected cells; host or cells: HEK cells (membrane extract)
Sequence (Q12879 23-1464, species assumed, other chains not shown): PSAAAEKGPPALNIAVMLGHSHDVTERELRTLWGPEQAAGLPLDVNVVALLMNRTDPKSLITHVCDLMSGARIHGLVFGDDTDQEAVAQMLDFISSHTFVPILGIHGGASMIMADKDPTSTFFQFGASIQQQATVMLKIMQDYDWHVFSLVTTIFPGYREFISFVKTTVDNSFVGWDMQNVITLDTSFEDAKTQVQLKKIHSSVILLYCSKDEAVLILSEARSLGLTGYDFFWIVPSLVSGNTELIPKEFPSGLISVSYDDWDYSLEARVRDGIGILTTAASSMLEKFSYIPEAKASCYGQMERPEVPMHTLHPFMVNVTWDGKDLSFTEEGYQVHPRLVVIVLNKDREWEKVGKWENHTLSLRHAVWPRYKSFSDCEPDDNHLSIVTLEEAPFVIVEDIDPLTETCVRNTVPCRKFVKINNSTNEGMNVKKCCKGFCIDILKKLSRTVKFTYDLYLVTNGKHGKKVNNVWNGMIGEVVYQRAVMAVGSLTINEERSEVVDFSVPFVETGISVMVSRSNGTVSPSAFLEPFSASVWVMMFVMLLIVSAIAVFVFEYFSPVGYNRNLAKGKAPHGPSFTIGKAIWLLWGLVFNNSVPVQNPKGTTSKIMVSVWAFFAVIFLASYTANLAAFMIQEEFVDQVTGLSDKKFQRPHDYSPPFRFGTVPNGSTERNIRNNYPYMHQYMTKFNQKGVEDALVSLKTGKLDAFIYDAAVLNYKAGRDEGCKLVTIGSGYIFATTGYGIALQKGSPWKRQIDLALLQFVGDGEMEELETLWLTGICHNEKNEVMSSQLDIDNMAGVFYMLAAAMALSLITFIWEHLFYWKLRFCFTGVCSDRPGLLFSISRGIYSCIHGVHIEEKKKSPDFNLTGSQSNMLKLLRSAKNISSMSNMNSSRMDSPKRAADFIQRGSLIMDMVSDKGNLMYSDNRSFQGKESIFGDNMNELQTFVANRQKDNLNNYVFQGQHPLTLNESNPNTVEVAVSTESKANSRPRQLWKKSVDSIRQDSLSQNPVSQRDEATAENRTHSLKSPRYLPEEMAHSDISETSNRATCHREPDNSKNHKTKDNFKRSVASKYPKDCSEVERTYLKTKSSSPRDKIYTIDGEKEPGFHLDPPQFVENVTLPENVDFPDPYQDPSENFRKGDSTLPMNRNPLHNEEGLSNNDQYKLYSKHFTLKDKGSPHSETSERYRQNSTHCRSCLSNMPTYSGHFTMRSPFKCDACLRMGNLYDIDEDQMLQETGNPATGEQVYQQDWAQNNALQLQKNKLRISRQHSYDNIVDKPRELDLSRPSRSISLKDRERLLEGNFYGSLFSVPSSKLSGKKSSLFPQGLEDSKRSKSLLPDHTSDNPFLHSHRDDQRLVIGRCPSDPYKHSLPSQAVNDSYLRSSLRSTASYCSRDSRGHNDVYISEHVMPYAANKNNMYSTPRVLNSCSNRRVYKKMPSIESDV
Test: [3H]MK-801 binding in NMDAR expressing HEK cell membranes (facilitation of NMDAR activation)
Type: biochemical
Settings: 0.25 h, 50 μM glutamate, read-out: A: % maximal [3H]MK-801 binding relative to 1 mM glycine
Give bare numbers, in %.

molecule	endpoint	reading_unit	observed_measurement
COc1ccc(CN2CC3(CCC(C)CC3)C2=O)cc1 (stereo not shown) [Compound AC]	Emax	%	0
O=C1NCC12CCC(O)CC2 (stereo not shown) [AK, 7-hydroxy-2-azaspiro[3.5]nonan-1-one]	Emax	%	0

[Q] Requested read-out: Emax. Entry: CC1CCC2(CC1)CNC2=O (racemic) [Compound AD, 7-methyl-2-azaspiro[3.5]nonan-1-one]
[A] 0

---

Assay: oral pharmacokinetics (plasma, brain, CSF)
Assay type: in vivo, Sprague Dawley rats
Settings: rat, per os 10 mg/kg, CSF
Would you kindly list CSF Cmax for each of these molecules?
Give bare numbers, in ng/mL.

Provide CSF Cmax for all items below, preserving their order.
1. CC1CCC2(CC1)CN([C@H](C(N)=O)[C@@H](C)O)C2=O (mixture of isomers)
2. C[C@@H](O)[C@@H](C(N)=O)N1CC2(CCC(F)(F)CC2)C1=O
3. C[C@@H](O)[C@H](NC1CCC2(CC1)CNC2=O)C(N)=O (single isomer, unassigned) [AP]
4. O=C1NCC12CCC(O)CC2 (stereo not shown) [AL, 7-hydroxy-2-azaspiro[3.5]nonan-1-one]

[A]
1. 1384.82
2. 1676.3
3. 80.46
4. 7532

---

For each of the compounds below, state its AUC(0-t).
Experiment: oral pharmacokinetics (plasma, brain, CSF)
Format: in vivo, Sprague Dawley rats
Details: Sprague-Dawley, po; rat, per os 10 mg/kg, plasma
Give bare numbers, in ng·h/mL.

Consider the worked cases shown below.
compound	reading_unit	AUC(0-t)
CCN(Cc1ccccc1)C1CCC2(CC1)CNC2=O (stereo not shown) [FB]	ng·h/mL	3410
O=C1NCC12CCC(NCc1ccccc1)CC2 (stereo not shown) [EX]	ng·h/mL	7380
CN(Cc1ccccc1)C1CCC2(CC1)CNC2=O (stereo not shown) [EY]	ng·h/mL	2920

Could you now consider this next compound?
[Q] Look up AUC(0-t) for this compound: COc1ccc(CN2CC3(CCC(O)CC3)C2=O)cc1 (stereo not shown) [AG]
[A] 1330

---

Molecular target: NMDAR2A (Homo sapiens, UniProt Q12879)
Construct: expressed in transfected cells; host or cells: HEK cells (membrane extract)
Assay: [3H]MK-801 binding in NMDAR expressing HEK cell membranes (facilitation of NMDAR activation)
Format: biochemical
Details: 0.25 h, 50 μM glutamate, read-out: A: % maximal [3H]MK-801 binding relative to 1 mM glycine
Description: Assays were conducted as described by Moskal et al., “GLYX-13: a monoclonal antibody-derived peptide that acts as an N-methyl-D-aspartate receptor modulator,” Neuropharmacology, 49, 1077-87, 2005. These studies were designed to determine if the test compounds act to facilitate NMDAR activation in NMDAR2A, NMDAR2B, NMDAR2C or NMDAR2D expressing HEK cell membranes as measured by increases in [^3H]MK-801 binding. […]
endpoint: Emax

Known Emax results, listed for orientation:
molecule	endpoint	observed_measurement
CC1CCC2(CC1)CN([C@H](C(N)=O)[C@@H](C)O)C2=O (mixture of isomers)	Emax	< 100%
CC1CCC2(CC1)CN([C@@H](CCC(=O)O)C(=O)O)C2=O (some centres unmarked)	Emax	< 100%

Batch request: Emax per item, same order as input.
1. O=C1NCC12CCCCC2 [Compound AB, 2-azaspiro[3.5]nonan-1-one]
2. COc1ccc(CN2CC3(CCC(O)CC3)C2=O)cc1 (centres unmarked)
3. C[C@@H](O)[C@H](NC1CCC2(CC1)CNC2=O)C(N)=O (single isomer, unassigned)

[A]
1: < 100%; 2: < 100%; 3: < 100%

---

Assay: IV pharmacokinetics
Assay type: in vivo, Sprague Dawley rats
Details: Sprague-Dawley, rat, in vivo, iv, 2 mg/kg, normal saline (* in 5% NMP, 5% Solutol HS, 90% normal saline), read-out: C0
Source text: The table below summarizes the results of the IV pharmacokinetics.
Task for the reader: assign each of the following compounds its reported C0.
Give bare numbers, in ng/mL.

Example cases with answers are listed next.
compound	observed_measurement
O=C1NCC12CCC(O)CC2 (stereo not drawn) [AL, 7-hydroxy-2-azaspiro[3.5]nonan-1-one]	3990
C[C@@H](O)[C@H](NC1CCC2(CC1)CNC2=O)C(N)=O (single isomer, unassigned)	3990

Could you now consider this next compound?
[Q] Which C0 is listed for CC1CCC2(CC1)CN(C(CCC(N)=O)C(N)=O)C2=O (single isomer, unassigned) ?
[A] 2220

---

Experiment: oral pharmacokinetics (plasma, brain, CSF)
Type: in vivo, Sprague Dawley rats
Conditions: Sprague-Dawley, po; rat, per os 10 mg/kg, plasma; read-out: Cmax
Could you please report measured Cmax for the items listed next?
Give bare numbers, in ng/mL.

compound	Cmax [ng/mL]
CN(Cc1ccccc1)C1CCC2(CC1)CNC2=O (stereo not shown)	1130

Can you give me Cmax for all of these, one by one?
1. O=C1NCC12CCC(NCc1ccccc1)CC2 (stereo not shown)
2. COc1ccc(CN2CC3(CCC(O)CC3)C2=O)cc1 (stereo not shown)
3. CCN(Cc1ccccc1)C1CCC2(CC1)CNC2=O (stereo not shown)

[A]
[3190, 1930, 1590]

---

Target: NMDAR2A (Homo sapiens, UniProt Q12879)
Construct: expressed in transfected cells; host or cells: HEK cells (membrane extract)
Assay: [3H]MK-801 binding in NMDAR expressing HEK cell membranes (facilitation of NMDAR activation)
Type: biochemical
Conditions: 50 μM glutamate
Protocol: Assays were conducted as described by Moskal et al., “GLYX-13: a monoclonal antibody-derived peptide that acts as an N-methyl-D-aspartate receptor modulator,” Neuropharmacology, 49, 1077-87, 2005. These studies were designed to determine if the test compounds act to facilitate NMDAR activation in NMDAR2A, NMDAR2B, NMDAR2C or NMDAR2D expressing HEK cell membranes as measured by increases in [^3H]MK-801 binding. […]
endpoint: A: % maximal [3H]MK-801 binding relative to 1 mM glycine

Example results:
compound	observed_measurement
O=C1N(OCc2ccccc2)CC12CCC(O)CC2 (stereo not shown) [FF]	− (−=0)
COc1ccc(CN2CC3(CCC(OCc4ccccc4)CC3)C2=O)cc1 (single isomer, unassigned) [AE]	+ (<100%=+)
CN(Cc1ccccc1)C1CCC2(CC1)CNC2=O (stereo not shown) [EY]	− (−=0)
O=C1N(OCc2ccccc2)CC12CCC(O)CC2 (stereo not shown) [FE]	+ (<100%=+)
CN(Cc1ccccc1)C1CCC2(CC1)CNC2=O (stereo not shown) [EZ]	+ (<100%=+)

Look up A: % maximal [3H]MK-801 binding relative to 1 mM glycine for the entries below, preserving their order.
1. CCN(Cc1ccccc1)C1CCC2(CC1)CNC2=O (stereo not shown) [FB]
2. CC1CCC2(CC1)CN(C(CCC(N)=O)C(N)=O)C2=O (single isomer, unassigned) [BE]
3. CCN(Cc1ccccc1)C1CCC2(CC1)CNC2=O (stereo not shown) [FA]
4. CC1CCC2(CC1)CN(C(CCC(N)=O)C(N)=O)C2=O (single isomer, unassigned) [BF]
5. C[C@@H](O)[C@H](NC1CCC2(CC1)CNC2=O)C(N)=O (single isomer, unassigned)

[A]
["+ (<100%=+)", "− (−=0)", "− (−=0)", "+ (<100%=+)", "+ (<100%=+)"]

---

Give % analgesia for every item shown.
Tested on: Sprague Dawley rats
Test: Bennett model of mechanical analgesia (sciatic nerve chronic constriction, paw withdrawal threshold);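 also: log paw withdrawal threshold scaled from vehicle group mean (0%) to naive 15 g value (100%)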
Format: in vivo, rat
Details: 0.1 mg/kg PO, 24 h
Numbers only, in %.

Go through the items and report each one's % analgesia.
1. CC1CCC2(CC1)CNC2=O (racemic) [Compound AD, 7-methyl-2-azaspiro[3.5]nonan-1-one]
2. O=C1NCC12CCC(OCc1ccccc1)CC2 (single isomer, unassigned) [AI, 7-(benzyloxy)-2-azaspiro[3.5]nonan-1-one]
3. O=C1NCC12CCC(O)CC2 (stereo not shown) [AL, 7-hydroxy-2-azaspiro[3.5]nonan-1-one]

[A]
4.7
7.7
10.8

[Q] Need % analgesia of COc1ccc(CN2CC3(CCC(O)CC3)C2=O)cc1 (stereo not shown) , thanks.
[A] 14.8

---

Experiment: IV pharmacokinetics
Type: in vivo, Sprague Dawley rats
Conditions: Sprague-Dawley, in vivo; rat, intravenous 2 mg/kg, normal saline (* in 5% NMP, 5% Solutol HS, 90% normal saline); read-out: Vss
endpoint: Vd (L/kg)
Numbers only, in L/kg.

Some compounds with recorded Vd:
compound	Vd (L/kg)
O=C1NCC12CCC(NCc1ccccc1)CC2 (stereo not shown) [EX]	2.71
CCN(Cc1ccccc1)C1CCC2(CC1)CNC2=O (stereo not shown) [FB]	2.33
COc1ccc(CN2CC3(CCC(O)CC3)C2=O)cc1 (stereo not shown) [AG]	0.7

[Q] // returns reported Vd for input CN(Cc1ccccc1)C1CCC2(CC1)CNC2=O (stereo not shown) [EY]
[A] 1.09

These data points were gathered from patent US10961189B2.
